Source: PubChem BioAssay (NCI)

- System: RXF-631 renal
- METHOD SUMMARY: NCI tumour cell line growth inhibition, 48 h
MEASUREMENT LABEL: TGI

Worked examples follow.
[[record]]
molecule = "COc1cc(-c2ccccc2)c(OC)cc1CCl"
target_desc = "RXF-631 renal"
value_reported = "> 100 µM"

[[record]]
molecule = "CC(N)CN.CC(N)CN.[Cl-].[O]=[Os+2]=[O] (stereo not given)"
target_desc = "RXF-631 renal"
value_reported = "> 100 µM"

[[record]]
molecule = "CC1=C(C(=O)Nc2cccc(C(F)(F)F)c2)C(c2ccccc2F)C(C(=O)Nc2cccc(C(F)(F)F)c2)=C(C)N1"
target_desc = "RXF-631 renal"
value_reported = "23.2 µM"

[[record]]
molecule = "COc1ccccc1/C=C1\\N=C(C)OC1=O"
target_desc = "RXF-631 renal"
value_reported = "> 100 µM"


// lookup TGI for COC[C@@H]1Cc2cc(OC)c3c(c2[C@H](c2ccc(OC)c(OC)c2)[C@H]1COC)OCO3 > 100 µM

====

- System: CAKI-1 renal
- METHOD SUMMARY: NCI tumour cell line growth inhibition, 48 h
MEASUREMENT LABEL: TGI (µM)
One number for each entry, in µM.

Worked examples follow.
[[record]]
compound = "C[As](C)SCC(NC(=O)CCC(N)C(=O)O)C(=O)NCC(=O)O.Cl.c1ccncc1 (centres undefined)"
value_reported = 0.652

[[record]]
compound = "CN(CCNC(=O)c1cn(C)c2c1ccc1cc(Cl)ccc12)CCNC(=O)c1cn(C)c2c1ccc1cc(Cl)ccc12"
value_reported = 4.99

[[record]]
compound = "COc1cc(CCC(=O)O)c2cc3ccccc3cc2c1O"
value_reported = 33.8


// lookup TGI for COc1ccc(/C=C/c2ccnc3ccccc23)cc1 31.6

====

- Tested on: HCT-116 colon
- METHOD SUMMARY: NCI tumour cell line growth inhibition, 48 h
*1 amine or outer side, *2 acyl side, *3 side chain or, on linkers, in order; H or OH if unused. Where a SMILES comes first, the peptide text is derived from it. Bridges are numbered along the chain shown (N, C = ends). Roman numbers before positions name the chains, in order. X23 = CCCCCCCCCCCCCCC(=O)NC(CCCCN[*:2])C(=O)CN1CCCC1C(=O)[*:1]
MEASUREMENT LABEL: TGI (µM)
Give bare numbers, in µM.

// lookup TGI for CCCCCCCCCCCCCCC(=O)NC(CCCCNC(=O)C1CCCN1C(=O)C(CCCCN)NC(=O)C(CCCCN)NC(=O)C(CCCCN)NC(=O)C(CCCNC(=N)N)NC(=O)C(CCCCN)NC(=O)C(N)C(C)C)C(=O)CN1CCCC1C(=O)NCC(=O)NC(Cc1ccccc1)C(=O)N1CCCC1C(=O)NC(CO)C(=O)NC(Cc1ccc(O)cc1)C(=O)NC(CCCCN)C(=O)NC(CC(C)C)C(=O)NC(CCCNC(=N)N)C(=O)N1CCCC1C(=O)NCC(N)=O (stereo unspecified) (I: GFPSYKLRPG-NH2 / II: H-VKRKKKP; linker I:N-II:C via X23; configuration not given here) 33.1

====

- Test system: SK-OV-3 ovarian
- METHOD SUMMARY: NCI tumour cell line growth inhibition, 48 h
Kindly state TGI for each of the entries shown.

Go through the items and report each one's TGI.
1. COC(=O)CCN1CCN(CCO)CC1C (stereo not given)
2. CC1(C)C(=O)CCC(=O)C(C)(C)C2=CC=C(O2)C(C)(C)C(=O)CCC(=O)C(C)(C)C2=CC=C1O2
3. CC(=O)Nc1cc(C(c2ccccc2)c2ccccc2)cc(C(c2ccccc2)c2ccccc2)c1C
4. Cc1cc(N2CCN(C)CC2)nc(N(CCNc2ccnc3cc(Cl)ccc23)Cc2ccco2)n1
5. O=S(=O)(CC(O)C(Cl)(Cl)Cl)NNc1ccccc1 (stereo not given)
6. CC[C@@]1(OC(=O)C(N)CCC(=O)O)C(=O)OCc2c1cc1n(c2=O)Cc2cc3ccccc3nc2-1 (stereo not given in full)
7. Cc1ccc(C)c(NC(=O)/C(=N\N)C(c2cnc3ccc([N+](=O)[O-])cc3n2)[N+](=O)[O-])c1 (stereo not given)

1: > 10 µM; 2: > 100 µM; 3: > 100 µM; 4: 22.1 µM; 5: > 100 µM; 6: 3.33 µM; 7: > 100 µM

Go through the items and report each one's TGI.
1. O=C(O)c1cccc(S(=O)(=O)NN2C(=O)CSC2c2ccccc2Cl)c1 (stereo not given)
2. Cc1cn(C2CC(N=[N+]=[N-])C(CO)O2)c(=O)[nH]c1=O (stereo not given)
3. O=C(CCCCCNC1=CC(=O)c2ccccc2C1=O)NCCC[Te]c1ccccc1

> 100 µM
> 1000 µM
1.85 µM
